Tgt: CDK1/cyclin B
Run Description: CDK1/cyclin B kinase assay
Condition Set: read-out: CDK1 IC50, 15 μM ATP
pIC50: −log10 of the molar value.
Observed Property: pIC50

Here's what some known entries look like.
{"Compound": "COCCN1CCN(CCO/N=C2/C(=C3/C(=O)Nc4cc(Br)ccc43)Nc3ccccc32)CC1", "Tgt": "CDK1/cyclin B", "pIC50": 6.00}
{"Compound": "O=C1Nc2cc(Br)ccc2/C1=C1/Nc2ccccc2/C1=N\\OCCN1CCN(CCOCCO)CC1 [Compound 15]", "Tgt": "CDK1/cyclin B", "pIC50": 6.05}
{"Compound": "O=C1Nc2cc(Br)ccc2/C1=C1/Nc2ccccc2/C1=N\\OCCN1CCCC1 [Compound 18]", "Tgt": "CDK1/cyclin B", "pIC50": 6.35}
{"Compound": "O=C1Nc2cc(Br)ccc2/C1=C1/Nc2ccccc2/C1=N\\OCCN1CCCC1 [Compound 7]", "Tgt": "CDK1/cyclin B", "pIC50": 6.30}
{"Compound": "O=C1Nc2cc(Br)ccc2/C1=C1/Nc2ccccc2/C1=N\\OCC(O)CO (stereo not shown)", "Tgt": "CDK1/cyclin B", "pIC50": 6.96}

[I] O=C1Nc2cc(Br)ccc2/C1=C1/Nc2ccccc2/C1=N\OCCN1CCN(CCOCCO)CC1 [Compound 26]
[II] CN(CCON=C1C(=C2C(=O)Nc3cc(Br)ccc32)Nc2ccccc21)CC(O)CO.Cl (stereo not shown)
Enquiry: Of the two listed items, I and II , which carries the larger pIC50 figure? Return value: the label identifying the chosen record.
Return: II
